Provenance of the data: PubChem BioAssay (NCI)

Tested on: CCRF-CEM leukemia
test: NCI tumour cell line growth inhibition, 48 h; in the data active = GI50 below about 0.43 µM; inactive = the rest
// classify into y (active), n (inactive)

Study these solved cases before continuing.
molecule	assigned category
Cc1cc(NC(=O)NCCOc2ccc(N3C(N)=NC(N)=NC3(C)C)cc2Cl)ccc1S(=O)(=O)F	n
COc1ccc(/C=C\c2cc(OC)c(OC)c(OC)c2)cc1NC(=O)/C=C/c1ccc(OC)c(OC)c1	n
CCN1C(=O)N(CC)C2C1NN=c1s/c(=C3\C(=O)Nc4ccccc43)c(=O)n12 (stereo not given)	y
Nc1c(C(=O)c2cccc(-c3cccnc3)c2)cnn1-c1ccc(F)cc1	n

Could you kindly confirm the outcome this assay logged for O=C(c1ccc(Cl)cc1Cl)N1CCN(C(=O)c2ccc(Cl)cc2Cl)C1=S ? n

----------
System: NCI-H460 lung
test: NCI tumour cell line growth inhibition, 48 h
Entries and their measured TGI follow.

Worked cases, TGI given:
compound	assay system	parameter measured	test value
CN(C)N1C(=O)C(=O)N(c2cccc3ccccc23)C1=O	NCI-H460 lung	TGI	> 10 µM
COc1ccc(C2=Nn3c(nnc3-c3ccc(F)c(Cl)c3)SC2)cc1	NCI-H460 lung	TGI	> 100 µM
COc1cc(C[C@H]2COC(=O)[C@]2(O)Cc2ccc(OCc3ccccc3)c(OC)c2)ccc1OCc1ccccc1	NCI-H460 lung	TGI	> 100 µM
CCC1(CC)C(=O)NC(=O)NC1=S	NCI-H460 lung	TGI	> 100 µM
O=CNC(Cc1cnc[nH]1)C(=O)O (stereo unspecified)	NCI-H460 lung	TGI	> 100 µM
CCN1C(=O)N(CC)C2C1NN=c1s/c(=C3\C(=O)Nc4ccccc43)c(=O)n12 (stereo unspecified)	NCI-H460 lung	TGI	> 100 µM
COc1ccc2[nH]c3c(C)c4c(c(C)c3c2c1)CN(C)C=C4	NCI-H460 lung	TGI	11.2 µM
O=C1OC(C(O)CO)C(C(O)CO)OC1=O (stereo unspecified)	NCI-H460 lung	TGI	> 10 µM

What does the data say about its TGI? Entry: CC(NCCN(C)C)C1CCC2C3CCc4cc(O)ccc4C3CCC12C (stereo unspecified) 4.68 µM

What does the data say about its TGI? Entry: COc1ccc(-c2cc(=O)c3c(O)c(O)c(OC)cc3o2)cc1O > 100 µM

What does the data say about its TGI? Entry: COC(=O)NC1(NC(=O)OC)NC(=O)c2ccccc2N1 > 100 µM

----------
Test system: BT-549 breast
test: NCI tumour cell line growth inhibition, 48 h; in the data active = GI50 below about 0.43 µM; inactive = the rest
// classify into active, inactive

Study these solved cases before continuing.
compound	assigned category
COc1ccc(C2=C(c3ccc(OC)cc3)C(=O)OC2)cc1	inactive
CN(C)S(=O)(=O)c1cccc(C(=O)Nc2nc(-c3ccc(F)c(F)c3)cs2)c1	inactive
COc1cc(/C=C/C(=O)c2c(C)n([O-])c3ccccc3[n+]2=O)cc(OC)c1OC	inactive

Could you kindly confirm the outcome this assay logged for CCN1C(=O)N(CC)C2C1NN=c1s/c(=C3\C(=O)Nc4ccccc43)c(=O)n12 (stereo unspecified) ? inactive

Could you kindly confirm the outcome this assay logged for O=[N+]([O-])c1ccc(Sc2cccc[n+]2[O-])c2nonc12 ? inactive

Could you kindly confirm the outcome this assay logged for CCCC(=O)Oc1ccc(/C(=C(\C)c2ccc(Cl)cc2)c2ccc(OCCN(CC)CC)cc2)cc1 ? inactive

Could you kindly confirm the outcome this assay logged for CCC1(O)C(=O)OCc2c1cc1n(c2=O)Cc2cc3cc4c(cc3nc2-1)OCO4 (stereo unspecified) ? active

Could you kindly confirm the outcome this assay logged for OCc1c(-c2cccs2)oc(-c2cccs2)c1CO ? inactive

Could you kindly confirm the outcome this assay logged for COc1ccc(Cn2cc3c(c2-c2ccccc2)CCc2cnoc2-3)cc1 ? active

Could you kindly confirm the outcome this assay logged for Cc1cc(NC(=O)NCCOc2ccc(N3C(N)=NC(N)=NC3(C)C)cc2Cl)ccc1S(=O)(=O)F ? inactive

Could you kindly confirm the outcome this assay logged for CNC(=O)[C@H](Cc1c[nH]c2ccccc12)NC(=O)[C@@H](CC(=O)NO)CC(C)C ? inactive

----------
Entries and their measured TGI follow.
Tested on: OVCAR-3 ovarian
test: NCI tumour cell line growth inhibition, 48 h

compound	assay system	parameter measured	test value
COc1ccc([N+](=O)[O-])c2c(NCCCN(C)C)c(C)c(C)nc12	OVCAR-3 ovarian	TGI	> 100 µM
NCC(=O)Nc1ccc(Cl)cc1C(=O)c1ccc[nH]1	OVCAR-3 ovarian	TGI	> 100 µM
COc1ccccc1/C=C1\C(=O)N(C(=O)Cc2ccccc2)N=C1C	OVCAR-3 ovarian	TGI	> 100 µM
COc1ccc(-c2cc(=O)c3c(O)c(O)c(OC)cc3o2)cc1O	OVCAR-3 ovarian	TGI	> 100 µM
O=C(O)c1cccc([As]=[As]c2cccc(C(=O)O)c2)c1 (stereo unspecified)	OVCAR-3 ovarian	TGI	> 100 µM

Let's switch to this compound now.
What does the data say about its TGI? Entry: O=[N+]([O-])c1ccc(Sc2cccc[n+]2[O-])c2nonc12 2.48 µM

----------
Tested on: M19-MEL melanoma
test: NCI tumour cell line growth inhibition, 48 h
parameter measured: TGI (µM)
Report only the number, with the unit µM understood.

compound	TGI (µM)
COc1ccc2nc3cc(Cl)ccc3c(Sc3ccc(N)cc3)c2c1	20.2

What does the data say about its TGI? Entry: CCC1(O)C(=O)OCc2c1cc1n(c2=O)Cc2cc3cc4c(cc3nc2-1)OCO4 (stereo not given) 0.205

----------
Test system: UO-31 renal
test: NCI tumour cell line growth inhibition, 48 h
parameter measured: GI50

molecule smiles	GI50
Nc1c(C(=O)c2cccc(-c3cccnc3)c2)cnn1-c1ccc(F)cc1	> 25 µM
CN[C@@H](C)C(=O)N[C@H](C(=O)N1CCC[C@H]1c1nc(C(=O)c2ccc(F)cc2)cs1)C1CCCCC1	36.1 µM
COc1ccc(-n2cc(-c3cc(OC)c(OC)c(OC)c3)nc2SCc2cccc(C#N)c2)cc1OC	> 100 µM

Let's switch to this compound now.
What does the data say about its GI50? Entry: CN(C)CCNC(=O)c1ccc2c(c1)oc1cc3ccccc3c(=O)n12 15.1 µM

----------
System: SNB-19 CNS
test: NCI tumour cell line growth inhibition, 48 h
parameter measured: TGI

molecule	TGI
COc1cc(/C=C/C(=O)CC(=O)/C=C/c2cc(C)c(O)c(OC)c2)cc(C)c1O	> 100 µM
COc1ccc2nc3cc(Cl)ccc3c(Nc3ccccc3-c3ccccc3Nc3c4ccc(Cl)cc4nc4ccc(OC)cc34)c2c1	> 100 µM
O=[N+]([O-])c1ccc2c(c1)nc1n2C(c2c(F)cccc2F)SC1 (configuration not stated)	> 100 µM
COc1ccccc1/C=C1\C(=O)N(C(=O)Cc2ccccc2)N=C1C	> 100 µM
CN[C@@H](C)C(=O)N[C@H](C(=O)N1CCC[C@H]1c1nc(C(=O)c2ccc(F)cc2)cs1)C1CCCCC1	> 100 µM
O=C(N/N=C\c1ccc(Cl)cc1)Nc1ccc2ccccc2c1	> 100 µM

Value wanted: TGI (SNB-19 CNS) of entry O=c1[nH]c2nc3ccccc3c(=O)n2nc1Cc1ccccc1 > 100 µM

Value wanted: TGI (SNB-19 CNS) of entry O=C(O)/C=C/c1c2ccc(=O)c(O)c-2oc2c(O)c(O)ccc12 > 100 µM

Value wanted: TGI (SNB-19 CNS) of entry COc1cc(C[C@H]2COC(=O)[C@]2(O)Cc2ccc(OCc3ccccc3)c(OC)c2)ccc1OCc1ccccc1 > 100 µM

Value wanted: TGI (SNB-19 CNS) of entry COc1ccc(Cn2cc3c(c2-c2ccccc2)CCc2cnoc2-3)cc1 > 100 µM

Value wanted: TGI (SNB-19 CNS) of entry Nc1nnc(N)n1N > 100 µM

----------
Test system: SK-MEL-5 melanoma
test: NCI tumour cell line growth inhibition, 48 h; in the data active means GI50 below about 0.43 µM; inactive means the rest
// classify into 1 for active, 0 for inactive

Study these solved cases before continuing.
molecule smiles	assay system	assigned category
CN(C)S(=O)(=O)c1cccc(C(=O)Nc2nc(-c3ccc(F)c(F)c3)cs2)c1	SK-MEL-5 melanoma	0
Nc1[nH]nc(Nc2ccccc2)c1-c1nc2ccccc2s1	SK-MEL-5 melanoma	0
CNC(=O)[C@H](Cc1c[nH]c2ccccc12)NC(=O)[C@@H](CC(=O)NO)CC(C)C	SK-MEL-5 melanoma	0
COc1ccc(-n2cc(-c3cc(OC)c(OC)c(OC)c3)nc2SCc2cccc(C#N)c2)cc1OC	SK-MEL-5 melanoma	0
COc1ccc(/C=C\c2cc(OC)c(OC)c(OC)c2)cc1NC(=O)/C=C/c1ccc(OC)c(OC)c1	SK-MEL-5 melanoma	0
CN1CCN(C2=C(Cl)C(=O)c3ccccc3C2=O)CC1	SK-MEL-5 melanoma	0
CCN(Cc1ccc(Cl)c(Cl)c1)c1ccc2nc(N)nc(N)c2c1C	SK-MEL-5 melanoma	1
COc1cc(/C=C/C(=O)c2c(C)n([O-])c3ccccc3[n+]2=O)cc(OC)c1OC	SK-MEL-5 melanoma	0

Could you kindly confirm the outcome this assay logged for CNc1c2ccccc2nc2occ(Cl)c12 ? 0

Could you kindly confirm the outcome this assay logged for O=[N+]([O-])c1ccc(Sc2cccc[n+]2[O-])c2nonc12 ? 0

Could you kindly confirm the outcome this assay logged for CN(c1cccc(C(=O)O)c1)c1cc(O/N=[N+](\[O-])N(C)C)c([N+](=O)[O-])cc1[N+](=O)[O-] ? 0
